testedOn: Cytochrome P450 1A2 (Homo sapiens) (UniProt P05177)
Sequence (P05177 whole entry, looked up): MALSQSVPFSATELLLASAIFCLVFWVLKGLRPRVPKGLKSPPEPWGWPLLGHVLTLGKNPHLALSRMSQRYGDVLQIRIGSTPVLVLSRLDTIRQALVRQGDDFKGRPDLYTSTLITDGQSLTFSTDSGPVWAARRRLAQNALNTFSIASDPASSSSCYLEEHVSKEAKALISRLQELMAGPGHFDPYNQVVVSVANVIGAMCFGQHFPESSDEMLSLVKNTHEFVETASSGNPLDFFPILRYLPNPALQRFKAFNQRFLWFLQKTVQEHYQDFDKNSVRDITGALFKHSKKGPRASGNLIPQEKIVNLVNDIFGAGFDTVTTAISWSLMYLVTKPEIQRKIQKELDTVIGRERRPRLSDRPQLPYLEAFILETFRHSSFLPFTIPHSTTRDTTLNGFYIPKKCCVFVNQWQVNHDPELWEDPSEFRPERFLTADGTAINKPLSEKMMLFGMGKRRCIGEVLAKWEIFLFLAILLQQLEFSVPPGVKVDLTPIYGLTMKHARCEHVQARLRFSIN
methodNotes: Cytochrome panel assay with activity outcomes
recordedConditions: recombinant CYP, pro-luciferin dealkylation, luminescence, p450-cyp1a2; series mostly up to 57.1 µM
Method: The P450 gene superfamily is involved in the metabolism and clearance of xenobiotics. This assay used various human CYP P450 isozymes to measure the dealkylation of various pro-luciferin substrates to luciferin. The luciferin is then measured by luminescence after the addition of a luciferase detection reagent. […] Inhibitors and some substrates limit the production of luciferin, and decrease measured luminescence. […] 8, Detection, 1 sec, ViewLux luminescent read […]
The whole screen tested about 16,000 compounds, of which about 5,700 (36%) were called active. Another 24% or so got no clear call; they are omitted. The call rests on the fitted dose curve; in most records, active means well fitted curve in the direction sought with a large enough effect; inconclusive means small, poorly fitted or top-dose-only effect, or effect the other way; inactive means no such curve, though single readings can be large or run the other way. This is one part of the list.
API: response.call in YES (active), NO (inactive)

>>> classlabel("c1ncc(-c2ccoc2)c(NC2CC2)n1")
"YES"

What did the test return for `O=C(OCC(=O)c1ccc([N+](=O)[O-])cc1)/C(=C\c1ccc(Cl)cc1)NC(=O)c1ccccc1` ?
YES

How about CCCCCCCCOC1OC(CO)C(O)C(O)C1NC(C)=O (stereo not drawn) ?
NO

How about `Cc1ccc(S(=O)(=O)N2CCC(C(=O)NCc3cccnc3)CC2)cc1` ?
NO

How about CCOC(=O)C1=C(C)NC2=C(C(=O)C(C(=O)OCC)C(c3ccc(OC)cc3)C2)C1c1ccccn1 (stereo not drawn) ?
NO

How about `O=C(CSCc1c(Cl)cccc1Cl)NCc1cccnc1` ?
YES

---

testedOn: Cytochrome P450 1A2 (Homo sapiens) (UniProt P05177)
methodNotes: Cytochrome panel assay with activity outcomes
recordedConditions: recombinant CYP, pro-luciferin dealkylation, luminescence, p450-cyp1a2; series mostly up to 57.1 µM
Out of some 16,000 compounds screened, about 5,700 (36%) were called active. Not shown: some 24% with an inconclusive outcome. The call rests on the fitted dose curve; in most records, active means well fitted curve in the direction sought with a large enough effect; inconclusive means small, poorly fitted or top-dose-only effect, or effect the other way; inactive means no such curve, though single readings can be large or run the other way. Some of the results follow.
API: response.call in active, inactive

Known results for compounds:
>>> classlabel("COCCNC(=O)c1ccc2c(c1)ncn2-c1ccc(F)c(F)c1")
"active"
>>> classlabel("CC(=O)NC1(c2ccc(F)cc2)CCN(C(=O)Nc2ccc(F)cc2F)CC1")
"inactive"
>>> classlabel("COCCNC(=O)c1ccc2c(c1)nc(C)n2-c1cc(OC)c(OC)c(OC)c1")
"inactive"
>>> classlabel("CNC(=O)c1sc(-c2cccnc2)nc1C")
"active"
>>> classlabel("COc1ccc(CNc2ccnc(-c3cccc(NS(C)(=O)=O)c3)n2)c(OC)c1")
"active"

What did the test return for Cc1cccc(C)c1NC(=O)CS(=O)CC(=O)Nc1ccc(F)cc1F (stereo not given) ?
inactive

How about `Cc1nc(-c2cccnc2)sc1C(=O)Nc1ccc(Cl)cc1` ?
active

How about `CCCCNC(=O)CSc1nc2cc(OC)c(OC)cc2c(=O)n1Cc1ccc(OC)cc1` ?
inactive

How about `COc1cc2nc(SCc3ccc(Cl)cc3Cl)n(Cc3cccs3)c(=N)c2cc1OC` ?
active

How about `COc1ccc([C@@H]2CC(=O)c3c(O)cc(O[C@H]4O[C@@H](CO[C@H]5O[C@@H](C)[C@@H](O)[C@@H](O)[C@@H]5O)[C@@H](O)[C@@H](O)[C@@H]4O)cc3O2)cc1O` ?
inactive

---

testedOn: Cytochrome P450 1A2 (Homo sapiens) (UniProt P05177)
methodNotes: Cytochrome panel assay with activity outcomes
recordedConditions: recombinant CYP, pro-luciferin dealkylation, luminescence, p450-cyp1a2; series mostly up to 57.1 µM
The campaign covered roughly 16,000 compounds. About 5,700 (36%) were called active. About 24% were inconclusive and are not listed. Calls follow the shape of the dose curve; as a rule, active = well fitted curve in the direction sought with a large enough effect; inconclusive = small, poorly fitted or top-dose-only effect, or effect the other way; inactive = no such curve, though single readings can be large or run the other way. The list shows a part of the results.
API: response.call in 1 for active, -1 for inactive

>>> classlabel("CN(C)c1ccc(N=Cc2nc(-c3ccccc3)oc2O)cc1")
1
>>> classlabel("Cc1ccc(CNC(=O)CCNS(=O)(=O)c2ccc3c(c2)c(=O)n(C)c(=O)n3C)cc1")
-1
>>> classlabel("CS(=O)(=O)Nc1cccc(-c2nc(Nc3ccncc3)c3ccccc3n2)c1")
1
>>> classlabel("CN(C)c1nc(-c2cccc(NS(C)(=O)=O)c2)nc2ccccc12")
1

What did the test return for `O=C1O/C(=C\Br)CC[C@@H]1c1cccc2ccccc12` ?
-1

How about `COc1ccc(OC)c(Nc2nc(-c3cccc([N+](=O)[O-])c3)nc3ccccc23)c1` ?
-1

How about CCCCCCC1CC(C)(/C(C)=N/NC(N)=O)OC1=O (configuration not stated) ?
-1

How about `COc1cccc(-c2nc(Nc3ccncc3)c3ccccc3n2)c1` ?
1

How about `O=C(Cc1ccccc1)NCCSCc1ccc(Cl)cc1` ?
1

Data provenance: PubChem BioAssay AID1851
